Target: IMP-1 (Serratia marcescens)
Test: Enzyme activity: determination of IC50, fluorescence assay with CCF2-FA substrate
Type: biochemical
Details: IMP1 IC50, enzyme 2 pM, CCF2-FA 1.25 μM, 2 hours at 25° C.
OBSERVABLE: IC50

>>> reported("CCCC[C@@H](C(=O)O)[C@@H](Cc1ccc(Br)cc1)c1nnn[nH]1")
"220 nM"

* * *

Biological target: IMP-1 (Serratia marcescens, UniProt P52699)
Sequence (P52699 19-246, looked up, species assumed): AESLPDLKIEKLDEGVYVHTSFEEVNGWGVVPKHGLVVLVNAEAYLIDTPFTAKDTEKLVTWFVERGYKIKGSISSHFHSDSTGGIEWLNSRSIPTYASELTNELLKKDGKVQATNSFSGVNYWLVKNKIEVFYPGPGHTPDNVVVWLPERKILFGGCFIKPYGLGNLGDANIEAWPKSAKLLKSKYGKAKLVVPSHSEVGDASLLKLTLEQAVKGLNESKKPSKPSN
Experiment: Enzyme activity: determination of IC50, fluorescence assay with CCF2-FA substrate
Type: biochemical
Settings: IMP-1 enzyme 2 pM, CCF2-FA 1.25 μM, 2 hours at 25° C.; read-out: IMP1 IC50
OBSERVABLE: IC50

>>> reported("CCC[C@H](C(=O)O)[C@H](Cc1ccc(-c2cnc3[nH]c(=O)[nH]c3c2)cc1)c1nnn[nH]1")
"92 nM"
>>> reported("CC(C)C[C@H](C(=O)O)[C@H](Cc1ccc(N2CCCC2c2ccccc2)nc1)c1nnn[nH]1 (stereo partly shown)")
"96 nM"
>>> reported("CC(C)C[C@H](C(=O)O)[C@H](Cc1ccc(Oc2ccccc2C2CCCN2)nc1)c1nn[nH]n1 (stereo partly shown) [Example 376]")
"660 nM"
>>> reported("CC(C)C[C@H](C(=O)O)[C@H](Cc1ccc(N2CC(C)(CN)C2)nc1)c1nnn[nH]1")
"4400 nM"
